# Test system: Surinam grass
# assayName: Test B pre-/postemergence herbicide test
# Format: in vivo, Urochloa decumbens
# measurementParameters: 500 g ai/ha; visual rating 0-100, 0 no effect, 100 complete control; preemergence

{"columns": ["compound", "Plant response rating, Surinam Grass"],
 "data": [
  ["C=CCNC(=O)c1cccc(NC(=O)c2sc(C(C)(C)C)nc2CC)c1", 60],
  ["CC(=NO)c1cc(NC(=O)c2cc(C(C)(C)C)nn2C)ccc1F", 80],
  ["CCc1nc(C(C)(C)C)sc1C(=O)Nc1cccc(C(=O)NCC(C)C)c1", 30],
  ["CCC(C)c1cc(C(=O)Nc2cccc(C(C)=NO)c2)n(C)n1 (stereo not drawn)", 0],
  ["C=Cn1nc(C(C)(C)C)cc1C(=O)Nc1cccc(C(C)=O)c1", 60],
  ["CCn1nc(C(C)(C)C)cc1C(=O)Nc1cccc(C(N)=O)n1", 100]
]}

====

# Tested on: soybean
# assayName: Test C pre-/postemergence herbicide test
# Type: in vivo, Glycine max
# measurementParameters: 500 g ai/ha; scale 0 to 100 (0 no effect, 100 complete control); visual, 12 to 14 days; preemergence
Quick rule: Plant response rating, Soybean of at least 40 means 1 (yes), below that means 0 (no).

{"columns": ["moleculeSmiles", "targetUnderTest", "labelClass"],
 "data": [
  ["CCn1nc(C2(C)CC2)cc1C(=O)Nc1cc(C(=O)N(C)C)ccc1F", "soybean", "1 (yes)"],
  ["C=CCNC(=O)c1cccc(NC(=O)c2nn(C(C)(C)C)nc2CC)c1", "soybean", "1 (yes)"],
  ["CCn1nc(C(C)(C)C)cc1C(=O)Nc1cccc(OC(F)F)c1", "soybean", "0 (no)"],
  ["CCNC(=O)c1cccc(NC(=O)c2sc(C(C)(C)C)nc2CC)n1", "soybean", "0 (no)"]
]}

====

# System: barnyardgrass
# assayName: Test C flooded paddy test
# Type: in vivo, Echinochloa crus-galli
# measurementParameters: 125 g ai/ha, scale 0 to 100 (0 no effect, 100 complete control)
With a cut-off of 40, any Barnyardgrass plant response rating strictly below it is called Yes; any Barnyardgrass plant response rating meeting it or above is called No.

{"columns": ["moleculeSmiles", "labelClass"],
 "data": [
  ["CCc1nn(C(C)C)nc1C(=S)Nc1cccc(C(=S)N(C)C)c1", "Yes"],
  ["CCc1nn(C(C)(C)C)cc1C(=O)Nc1cc(C(=O)N(C)C)ccn1", "Yes"],
  ["CCn1nc(C(C)(C)C)cc1C(=S)Nc1cc(C(=S)N(C)C)ccc1F", "No"],
  ["CCNC(=O)c1cccc(NC(=O)c2nn(C(C)(C)C)nc2C)c1", "No"],
  ["CCNC(=O)c1ccc(F)c(NC(=O)c2c3c(nn2CC)C(C)(C)CC3)c1", "Yes"],
  ["CCNC(=O)c1cccc(NC(=O)c2nn(C(C)(C)C)cc2Cl)c1", "Yes"],
  ["CCc1nn(C(C)(C)CC)nc1C(=O)Nc1cc(C(=O)N(C)C)ccc1F", "Yes"],
  ["Cc1nn(C(C)C)nc1C(=O)Nc1cccc(C(=O)N2CC=CC2)c1", "Yes"],
  ["CCn1nc(C(C)(C)C)cc1C(=O)Nc1cc(C(=S)N(C)C)ccc1F", "No"],
  ["CCn1nc(C(C)(C)C)cc1C(=O)Nc1cccc(C(=O)N2CCOCC2)n1", "Yes"],
  ["CCn1nc(C2(C)CC2)cc1C(=O)Nc1cc(C(=O)N(C)C)ccc1F", "No"]
]}

====

Measured Barnyardgrass plant response rating accompanies every entry in the list below.
# Test system: barnyardgrass
# assayName: Test B pre-/postemergence herbicide test
# Format: in vivo, Echinochloa crus-galli
# measurementParameters: postemergence, 500 g ai/ha; visual rating, scale 0 (no effect) to 100 (complete control)
valueType: Barnyardgrass plant response rating

{"columns": ["moleculeSmiles", "endpointValue"],
 "data": [
  ["CCc1nc(C(C)(C)C)sc1C(=O)Nc1cccc(C(=O)NCC(C)C)c1", 10],
  ["CCNC(=O)c1cccc(NC(=O)c2nn(C(C)(C)C)cc2Cl)c1", 0],
  ["CCc1nn(C(C)(C)C)cc1C(=O)Nc1cc(C(=O)N(CC)CC)ccc1F", 20],
  ["CCNC(=O)c1cccc(NC(=O)c2cn(C(C)(C)C)nc2CC)c1", 10],
  ["CCn1nc(C(C)(C)C)cc1C(=O)Nc1cccc(SC)c1", 50],
  ["CCNC(=O)c1cccc(NC(=O)c2sc(C(C)(C)C)nc2C)c1", 30],
  ["CCn1nc(C(C)(C)C)cc1C(=O)Nc1cc(C(=O)N2CC=CC2)ccn1", 10],
  ["CCN(CC)C(=O)c1cc(NC(=O)c2cc(C(C)(C)C)nn2CC)c(F)cc1F", 10],
  ["COC(=O)c1cccc(NC(=O)c2sc(C(C)(C)C)nc2C)c1", 10]
]}

====

# System: large crabgrass
# assayName: Test B pre-/postemergence herbicide test
# Type: in vivo, Digitaria sanguinalis
# measurementParameters: postemergence, 125 g ai/ha; visual rating, scale 0 (no effect) to 100 (complete control)
# Procedure: […] At the same time, plants selected from these crop and weed species and also blackgrass (Alopecurus myosuroides Huds.), wheat (Triticum aestivum L.) and wild oat (Avena fatua L.) were treated with postemergence applications of test chemicals formulated in the same manner. […] Treated plants and controls were maintained in a greenhouse for 13 to 15 days, after which time all species were compared to controls and visually evaluated. […]
The following molecules are shown together with reported Crabgrass, Large plant response rating values.

{"columns": ["molecule", "Crabgrass, Large plant response rating"],
 "data": [
  ["CCCN1CCc2c(NC(=O)c3cc(C(C)(C)C)nn3CC)cccc2C1=O", 10],
  ["CCn1nc(C(C)(C)C)cc1C(=O)Nc1cncc(C(=O)N(C)C)c1", 0],
  ["CCn1nc(C(C)(C)C)cc1C(=O)Nc1cccc([S+]([O-])C(F)(F)F)c1 (stereo not drawn)", 20]
]}

====

# Tested on: pigweed
# assayName: Test B pre-/postemergence herbicide test
# Type: in vivo, Amaranthus retroflexus
# measurementParameters: postemergence, 500 g ai/ha; scale 0 to 100, 0 is no effect, 100 is complete control
Pigweed plant response rating values for the compounds below.
valueType: Pigweed plant response rating

{"columns": ["compound", "targetUnderTest", "endpointValue"],
 "data": [
  ["CCn1nc(C(C)(C)C)cc1C(=O)Nc1cc(OC)ccc1F [Compound 347]", "pigweed", 10],
  ["CCn1nc(C2(C)CC2)cc1C(=O)Nc1cccc(C(=O)N(C)C)c1 [Compound 303]", "pigweed", 90],
  ["CCn1nc(C(C)(C)C)cc1C(=O)Nc1cccc(C(=O)N2CCOCC2)n1 [Compound 247]", "pigweed", 60]
]}

====

# Test system: morningglory
# assayName: Test B pre-/postemergence herbicide test
# Assay type: in vivo, Ipomoea coccinea
# measurementParameters: Postemergence, 500 g ai/ha; visual rating after 13 to 15 days, scale 0 (no effect) to 100 (complete control)

{"columns": ["molecule", "Plant response rating, Morningglory"],
 "data": [
  ["CCCN1CCc2c(NC(=O)c3cc(C(C)(C)C)nn3CC)cccc2C1=O [Compound 65]", 20],
  ["CCOC(=O)c1cccc(NC(=O)c2cc(C(C)(C)C)nn2CC)c1OC [Compound 97]", 0],
  ["C#CCNC(=O)c1cccc(NC(=O)c2cc(C(C)(C)C)nn2CC)c1 [Compound 47]", 100],
  ["CCOC(=O)c1ccc(F)c(NC(=O)c2cc(C(C)(C)C)nn2CC)c1 [Compound 70]", 30],
  ["CCn1nc(C(C)(C)C)cc1C(=O)Nc1cccc(C(=O)OC(C)(C)C)c1 [Compound 98]", 20]
]}

====

# Test system: Surinam grass
# assayName: Test C pre-/postemergence herbicide test
# Format: in vivo, Urochloa decumbens
# measurementParameters: postemergence; 62 g ai/ha; scale 0 to 100
Parameter Plant response rating, Surinam Grass: see the listing below.
valueType: Plant response rating, Surinam Grass

{"columns": ["moleculeSmiles", "targetUnderTest", "endpointValue"],
 "data": [
  ["CCOC(=O)c1cccc(NC(=O)c2nn(C(C)(C)CC)nc2CC)c1", "Surinam grass", 20],
  ["CC(=NO)c1cccc(NC(=O)c2cc(C(C)(C)C)nn2CCF)c1", "Surinam grass", 30],
  ["CCCCOC(=O)c1cccc(NC(=O)c2cc(C(C)(C)C)nn2CC)c1", "Surinam grass", 10],
  ["C=Cn1nc(C(C)(C)C)cc1C(=O)Nc1cccc(C(=O)NCC)c1", "Surinam grass", 50],
  ["C#CCn1nc(C(C)(C)C)cc1C(=O)Nc1cccc(C(=O)NCC)c1", "Surinam grass", 10]
]}

Hey, just so you know, these numbers are from patent US20060069132A1.
